Entries and their measured Data of binding experiment (log Kd) follow.
target: T1, HLA-A*02:01 molecule (HLA-A*02:01 gene product) (human); assay: flow cytometry, T2 cells + purified b2m, peptide dilution series, BB7.2 staining
T1 construct: MHC class I on T2 cells with added purified b2m
Number first, unit second: that is the form wanted.

Known results for binders:
AASRYNLTI (Only the start position in MUC1 is printed; The end of the range follows from the length of 9 residues) [AASRYNLTI (Seq. ID No. 5)]    -4.81 log Kd
FLGLSNIKF (Only the start position in MUC1 is printed; The end of the range follows from the length of 9 residues) [FLGLSNIKF (Seq. ID No. 1)]    -5.39 log Kd

Attention now turns to another entry.
Record request: Data of binding experiment (log Kd) value, item SVPVTRPAL (Only the start position in MUC1 is printed; The end of the range follows from the length of 9 residues) [SVPVTRPAL (Seq. ID No. 2)]
-3.9 log Kd
